# testTarget: Bromodomain-containing protein 9 (Homo sapiens, UniProt Q9H8M2)
# Sequence (Q9H8M2 whole entry): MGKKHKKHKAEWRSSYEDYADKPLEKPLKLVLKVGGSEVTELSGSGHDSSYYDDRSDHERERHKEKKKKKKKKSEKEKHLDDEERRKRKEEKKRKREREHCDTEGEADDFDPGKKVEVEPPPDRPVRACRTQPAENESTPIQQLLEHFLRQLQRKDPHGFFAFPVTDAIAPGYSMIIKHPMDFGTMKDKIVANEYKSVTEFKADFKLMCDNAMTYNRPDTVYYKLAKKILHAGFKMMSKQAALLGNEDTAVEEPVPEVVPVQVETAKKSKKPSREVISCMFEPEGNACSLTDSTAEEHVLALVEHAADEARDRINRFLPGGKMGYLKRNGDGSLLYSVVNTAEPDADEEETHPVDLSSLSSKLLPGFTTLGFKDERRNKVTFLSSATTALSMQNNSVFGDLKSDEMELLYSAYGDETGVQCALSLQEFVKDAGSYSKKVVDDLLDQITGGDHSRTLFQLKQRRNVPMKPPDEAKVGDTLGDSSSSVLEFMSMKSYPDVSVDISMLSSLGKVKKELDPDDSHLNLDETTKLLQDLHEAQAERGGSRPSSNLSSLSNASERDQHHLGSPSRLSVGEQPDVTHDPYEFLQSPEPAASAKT
# measurementNotes: Inhibition of human His tagged BRD9 incubated for 30 mins followed by addition of biotinylated peptide and further incubation for 30 mins measured by AlphaScreen assay
parameterMeasured: IC50 (nM)
Respond with the bare value in nM.

Provide value of IC50 for this record tested with Bromodomain-containing protein 9 (Homo sapiens, UniProt Q9H8M2): `Cc1cc2cc(NS(=O)(=O)c3ccc(C#N)cc3)ccc2n(C)c1=O`
1100

====

# testTarget: Chromatin remodeling regulator CECR2 (Homo sapiens, UniProt Q9BXF3)
# Sequence (Q9BXF3 whole entry): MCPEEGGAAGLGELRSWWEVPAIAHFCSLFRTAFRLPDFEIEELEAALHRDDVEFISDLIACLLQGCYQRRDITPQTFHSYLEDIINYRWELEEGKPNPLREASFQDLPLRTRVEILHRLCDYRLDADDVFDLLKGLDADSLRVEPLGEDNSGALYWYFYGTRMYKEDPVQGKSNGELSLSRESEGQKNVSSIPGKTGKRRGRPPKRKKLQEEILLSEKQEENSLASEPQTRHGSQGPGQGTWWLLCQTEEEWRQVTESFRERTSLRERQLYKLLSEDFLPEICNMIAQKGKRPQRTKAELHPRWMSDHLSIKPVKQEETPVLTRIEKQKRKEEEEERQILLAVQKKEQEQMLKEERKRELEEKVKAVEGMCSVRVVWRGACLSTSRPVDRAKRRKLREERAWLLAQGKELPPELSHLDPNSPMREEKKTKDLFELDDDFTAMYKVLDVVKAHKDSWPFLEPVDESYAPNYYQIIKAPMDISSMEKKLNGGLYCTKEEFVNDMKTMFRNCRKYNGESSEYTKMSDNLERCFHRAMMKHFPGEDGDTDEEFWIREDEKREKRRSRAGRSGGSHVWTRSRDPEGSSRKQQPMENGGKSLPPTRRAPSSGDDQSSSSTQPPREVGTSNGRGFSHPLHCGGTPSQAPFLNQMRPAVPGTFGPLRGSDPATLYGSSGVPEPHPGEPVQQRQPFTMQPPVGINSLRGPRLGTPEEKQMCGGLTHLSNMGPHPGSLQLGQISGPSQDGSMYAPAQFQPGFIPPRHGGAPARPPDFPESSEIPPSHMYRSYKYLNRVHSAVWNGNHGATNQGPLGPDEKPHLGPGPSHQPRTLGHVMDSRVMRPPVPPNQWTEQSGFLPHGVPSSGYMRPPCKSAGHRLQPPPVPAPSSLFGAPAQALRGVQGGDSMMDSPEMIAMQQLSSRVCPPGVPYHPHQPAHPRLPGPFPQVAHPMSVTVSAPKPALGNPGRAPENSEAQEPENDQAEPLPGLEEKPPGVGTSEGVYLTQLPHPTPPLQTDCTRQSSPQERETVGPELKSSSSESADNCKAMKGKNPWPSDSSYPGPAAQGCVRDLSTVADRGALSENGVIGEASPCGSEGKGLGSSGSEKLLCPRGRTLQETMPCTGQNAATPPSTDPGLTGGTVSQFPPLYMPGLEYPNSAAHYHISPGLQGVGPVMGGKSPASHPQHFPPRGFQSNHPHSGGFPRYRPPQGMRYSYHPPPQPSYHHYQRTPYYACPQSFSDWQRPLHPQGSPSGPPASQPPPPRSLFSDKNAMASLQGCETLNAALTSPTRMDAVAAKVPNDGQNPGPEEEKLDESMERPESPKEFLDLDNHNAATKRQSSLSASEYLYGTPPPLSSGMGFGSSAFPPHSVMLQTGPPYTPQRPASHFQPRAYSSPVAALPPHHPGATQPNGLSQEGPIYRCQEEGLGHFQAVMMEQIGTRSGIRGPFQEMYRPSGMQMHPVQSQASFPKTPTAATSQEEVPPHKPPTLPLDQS
# measurementNotes: Inhibition of human CECR2 expressed in Escherichia coli BL21 after 1 hr by BROMOscan assay
pIC50: −log10 of the molar value.
parameterMeasured: pIC50

// lookup pIC50 for `CCc1cc2cc(NS(=O)(=O)c3ccc(C#N)cc3)ccc2n(CC)c1=O`
< 4.00

====

Below is a list of entries, each paired with its recorded pIC50 value.
# testTarget: Bromodomain-containing protein 1 (Homo sapiens, UniProt O95696)
# Sequence (O95696 whole entry): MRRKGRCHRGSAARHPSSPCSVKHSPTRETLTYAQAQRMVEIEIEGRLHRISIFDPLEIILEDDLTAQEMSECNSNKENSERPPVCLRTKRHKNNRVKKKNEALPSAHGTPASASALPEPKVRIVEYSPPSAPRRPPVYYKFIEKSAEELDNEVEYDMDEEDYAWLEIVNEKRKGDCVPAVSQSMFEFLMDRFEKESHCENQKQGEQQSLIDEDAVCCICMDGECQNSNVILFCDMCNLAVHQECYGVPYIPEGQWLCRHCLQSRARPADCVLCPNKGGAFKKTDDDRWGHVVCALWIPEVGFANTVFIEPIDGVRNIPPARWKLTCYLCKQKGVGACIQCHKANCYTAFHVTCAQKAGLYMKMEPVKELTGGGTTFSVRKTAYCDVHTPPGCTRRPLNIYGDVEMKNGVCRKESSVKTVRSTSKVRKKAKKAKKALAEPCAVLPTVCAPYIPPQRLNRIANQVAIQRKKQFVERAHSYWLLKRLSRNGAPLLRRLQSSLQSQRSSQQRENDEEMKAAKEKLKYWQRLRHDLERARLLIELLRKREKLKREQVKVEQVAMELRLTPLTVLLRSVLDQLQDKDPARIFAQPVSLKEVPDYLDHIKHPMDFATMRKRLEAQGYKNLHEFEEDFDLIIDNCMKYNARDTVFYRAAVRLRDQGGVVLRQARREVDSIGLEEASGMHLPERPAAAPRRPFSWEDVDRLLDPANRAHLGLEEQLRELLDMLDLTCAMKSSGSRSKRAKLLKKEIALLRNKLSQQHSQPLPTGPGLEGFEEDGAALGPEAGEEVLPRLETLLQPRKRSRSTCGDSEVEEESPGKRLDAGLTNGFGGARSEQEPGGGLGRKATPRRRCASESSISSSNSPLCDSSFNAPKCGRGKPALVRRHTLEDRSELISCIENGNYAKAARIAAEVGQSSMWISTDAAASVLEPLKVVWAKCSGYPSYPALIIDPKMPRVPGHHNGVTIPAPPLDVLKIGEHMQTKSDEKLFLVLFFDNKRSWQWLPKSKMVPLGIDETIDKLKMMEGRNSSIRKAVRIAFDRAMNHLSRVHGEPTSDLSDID
# measurementNotes: Inhibition of human BRPF2-BRD1 expressed in Escherichia coli BL21 after 1 hr by BROMOscan assay
To interpret pIC50, take it as minus log10 of a concentration measured in moles per litre.

Previously resolved entries follow.
Cn1c(=O)ccc2cc(NS(=O)(=O)c3ccc(C#N)c(Cl)c3)ccc21 : 6.35
Cc1cc2cc(NS(=O)(=O)c3ccc(C#N)cc3)ccc2n(C)c1=O : 7.32
COc1cc2c(cc1NS(=O)(=O)c1ccc(C#N)cc1)c(C)cc(=O)n2C : 5.74
Cn1c(=O)ccc2cc(NS(=O)(=O)c3ccc(Cl)c(Cl)c3)ccc21 : 6.64

Turning to the following molecule.
// lookup pIC50 for `COc1ccccc1C(=O)Nc1cc2cc(C)c(=O)n(C)c2cc1N1CCCC1`
5.59

====

# measurementNotes: Fraction absorbed in CD-1 mouse at 3 mg/kg, po
# Format: ADME, organism-based
# studyConditions: in vivo, read-out: Fabs
parameterMeasured: Fa (%)
Respond with the bare value in %.

// lookup Fa for `Cc1cc2cc(NS(=O)(=O)c3ccc(C#N)cc3)ccc2n(C)c1=O`
51
